Biological target: NRAS G12C (Homo sapiens, UniProt P01111+P62937, G12C)
Sequence (P01111 whole entry G12C, one chain of several): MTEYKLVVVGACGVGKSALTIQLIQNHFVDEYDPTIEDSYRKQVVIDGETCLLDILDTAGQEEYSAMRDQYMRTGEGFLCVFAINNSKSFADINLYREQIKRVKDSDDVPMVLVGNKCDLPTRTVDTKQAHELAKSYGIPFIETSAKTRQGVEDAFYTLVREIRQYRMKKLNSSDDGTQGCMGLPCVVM
Test: Disruption of BRAF RBD interaction with Ras (FRET / MOA assay, with Cyclophilin A)
Assay type: biochemical
Settings: NRAS G12C; read-out: NRAS G12C FRET data IC50
Known IC50 of a selection of molecules

Guide cases for IC50, answers given:
INSERT INTO assay_data (molecule, valuemeasured) VALUES
  ('CCn1c(-c2cccnc2[C@H](C)OC)c2c3cc(ccc31)-c1cc(O)cc(c1)C[C@H](NC(=O)[C@H](C(C)C)N(C)C(=O)C1Cc3cccnc3C1)C(=O)N1CCC[C@H](N1)C(=O)OCC(C)(C)C2 (some centres unmarked)', '10 to 100 nM'),
  ('CCn1c(-c2cccnc2[C@H](C)OC)c2c3cc(ccc31)-c1csc(n1)C[C@H](NC(=O)[C@H](C(C)C)N(C)C(=O)N1CCCC13CCOCC3)C(=O)N1CCC[C@H](N1)C(=O)OCC(C)(C)C2 (atropisomer, axis not shown)', '100 to 1000 nM'),
  ('CCn1c(-c2cccnc2[C@H](C)OC)c2c3cc(ccc31)-c1cc(O)cc(c1)C[C@H](NC(=O)[C@H](C(C)C)N(C)C(=O)C1(O)CC1)C(=O)N1CCC[C@H](N1)C(=O)OCC(C)(C)C2 (atropisomer, axis not shown)', '100 to 1000 nM'),
  ('CCn1c(-c2cccnc2[C@H](C)OC)c2c3cc(ccc31)-c1cc(O)cc(c1)C[C@H](NC(=O)[C@H](C(C)C)N(C)C(=O)OC1CC1)C(=O)N1CCC[C@H](N1)C(=O)OCC(C)(C)C2', '100 to 1000 nM'),
  ('CCn1c(-c2cccnc2[C@H](C)OC)c2c3cc(ccc31)-c1cc(O)cc(c1)C[C@H](NC(=O)[C@H](C(C)C)N(C)C(=O)[C@@H]1CCNC1)C(=O)N1CCC[C@H](N1)C(=O)OCC(C)(C)C2', '10 to 100 nM');

Consider the molecule `CCn1c(-c2cnccc2COC)c2c3cc(ccc31)-c1cc(O)cc(c1)C[C@H](NC(=O)[C@H](C(C)C)N(C)C(=O)N1CC(OC)C1)C(=O)N1CCC[C@H](N1)C(=O)OCC(C)(C)C2` and give its measured IC50. 100 to 1000 nM

Consider the molecule `C=CC(=O)N1CC[C@H](C(=O)N(C)[C@H](C(=O)N[C@H]2Cc3cc(O)cc(c3)-c3ccc4c(c3)c(c(-c3cc(CN(C)C)cnc3COC)n4CC)CC(C)(C)COC(=O)[C@@H]3CCCN(N3)C2=O)C(C)C)C1` and give its measured IC50. 10 to 100 nM

Consider the molecule `CCN(C(=O)N(C)[C@H](C(=O)N[C@H]1Cc2nc(cs2)-c2ccc3c(c2)c(c(-c2cccnc2[C@H](C)OC)n3CC)CC(C)(C)COC(=O)[C@@H]2CCCN(N2)C1=O)C(C)C)C1CC1` and give its measured IC50. 100 to 1000 nM

---

Target: KRAS G13D (Homo sapiens, UniProt P01116+P62937, G13D)
Sequence (P01116 1-169 isoform P01116-2 G13D limits assumed): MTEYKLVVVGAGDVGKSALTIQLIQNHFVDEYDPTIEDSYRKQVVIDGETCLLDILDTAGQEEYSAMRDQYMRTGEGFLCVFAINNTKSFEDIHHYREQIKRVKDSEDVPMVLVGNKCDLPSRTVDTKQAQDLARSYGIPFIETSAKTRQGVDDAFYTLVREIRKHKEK
Sequence (P62937 whole entry): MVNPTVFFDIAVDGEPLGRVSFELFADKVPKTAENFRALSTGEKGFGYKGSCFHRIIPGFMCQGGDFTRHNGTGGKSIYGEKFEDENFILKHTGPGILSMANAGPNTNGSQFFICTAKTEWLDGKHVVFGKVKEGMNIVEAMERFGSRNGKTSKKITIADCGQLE
Experiment: Disruption of BRAF RBD interaction with Ras (FRET / MOA assay, with Cyclophilin A)
Type: biochemical
Settings: KRAS G13D; read-out: KRAS G13D FRET data IC50
Known IC50 of a selection of molecules

INSERT INTO assay_data (molecule, valuemeasured) VALUES
  ('CCn1c(-c2cccnc2[C@H](C)OC)c2c3cc(ccc31)-c1csc(n1)C[C@H](NC(=O)[C@H]1CCCO1)C(=O)N1CCC[C@H](N1)C(=O)OCC(C)(C)C2 (atropisomer, axis not shown)', '0.1 to 1 µM'),
  ('CCn1c(-c2cccnc2[C@H](C)OC)c2c3cc(ccc31)-c1cc(O)cc(c1)C[C@H](NC(=O)[C@H](C(C)C)N(C)C(=O)[C@H]1CCCNC1)C(=O)N1CCC[C@H](N1)C(=O)OCC(C)(C)C2', '0.01 to 0.1 µM'),
  ('CCn1c(-c2cccnc2[C@H](C)OC)c2c3cc(ccc31)-c1csc(n1)C[C@H](NC(=O)[C@H](C(C)C)N(C)C(=O)N1CC3(C1)CS(=O)(=O)CCN3C)C(=O)N1CCC[C@H](N1)C(=O)OCC(C)(C)C2', '1 to 10 µM'),
  ('CCn1c(-c2cccnc2[C@H](C)OC)c2c3cc(ccc31)-c1cc(O)cc(c1)C[C@H](NC(=O)[C@H](C(C)C)N(C)C(=O)C1CN(C)C1)C(=O)N1CCC[C@H](N1)C(=O)OCC(C)(C)C2 (atropisomer, axis not shown)', '0.01 to 0.1 µM');

Consider the molecule `CCn1c(-c2cccnc2[C@H](C)OC)c2c3cc(ccc31)-c1csc(n1)C[C@H](NC(=O)[C@H](C(C)C)N(C)C(=O)N1CCC(C(=O)C(F)(F)F)CC1)C(=O)N1CCC[C@H](N1)C(=O)OCC(C)(C)C2` and give its measured IC50. 0.1 to 1 µM

Consider the molecule `CCn1c(-c2cccnc2[C@H](C)OC)c2c3cc(ccc31)-c1csc(n1)C[C@H](NC(=O)[C@H](C(C)C)N(C)C(=O)N1CCOC3(CN(C)C3)C1)C(=O)N1CCC[C@H](N1)C(=O)OCC(C)(C)C2` and give its measured IC50. 0.1 to 1 µM

---

Molecular target: NRAS Q61R (Homo sapiens, UniProt P01111+P62937, Q61R)
Sequence (P01111 whole entry Q61R, one chain of several): as the sequence (P01111 whole entry G12C, one chain of several) above, with C12G, Q61R counted along it
Assay: Disruption of BRAF RBD interaction with Ras (FRET / MOA assay, with Cyclophilin A)
Format: biochemical
Settings: NRAS Q61R; read-out: NRAS Q61R FRET data IC50
pIC50: −log10 of the molar value.
Known pIC50 of a selection of compounds

Consider the compound `C=CC(=O)N1CCOC2(CCN(C(=O)N(C)[C@H](C(=O)N[C@H]3CN4CCC=C(C4)c4ccc5c(c4)c(c(-c4cccnc4[C@H](C)OC)n5CC)CC(C)(C)COC(=O)[C@@H]4CCCN(N4)C3=O)C(C)C)CC2)C1` and give its measured pIC50. < 5.00

Consider the compound CCn1c(-c2cc(N3CCN(C)CC3)cnc2[C@H](C)OC)c2c3cc(ccc31)-c1csc(n1)C[C@H](NC(=O)[C@H](C(C)C)N(C)C(=O)N1C[C@@H](C)N(C)C[C@H]1C)C(=O)N1CCC[C@H](N1)C(=O)OCC(C)(C)C2 (atropisomer, axis not shown) and give its measured pIC50. 6.00 to 7.00

Consider the compound CCn1c(-c2cccnc2[C@H](C)OC)c2c3cc(ccc31)-c1csc(n1)C[C@H](NC(=O)[C@H](C(C)C)N(C)C(=O)N1CCC(N(C)C)CC1)C(=O)N1CCC[C@H](N1)C(=O)OCC(C)(C)C2 (atropisomer, axis not shown) and give its measured pIC50. 6.00 to 7.00

Consider the compound `CCn1c(-c2cccnc2[C@H](C)OC)c2c3cc(ccc31)-c1csc(n1)C[C@H](NC(=O)c1ccccn1)C(=O)N1CCC[C@H](N1)C(=O)OCC(C)(C)C2` and give its measured pIC50. 5.00 to 6.00

Consider the compound CCn1c(-c2cccnc2[C@H](C)OC)c2c3cc(ccc31)-c1csc(n1)C[C@H](NC(=O)[C@H](C(C)C)N(C)C(=O)N1CC[C@]3(CCN(C)C3=O)C1)C(=O)N1CCC[C@H](N1)C(=O)OCC(C)(C)C2 (single isomer, unassigned) and give its measured pIC50. 6.00 to 7.00

Consider the compound `CCn1c(-c2cccnc2[C@H](C)OC)c2c3cc(ccc31)-c1csc(n1)C[C@H](NC(=O)[C@H](C(C)C)N(C)C(=O)N1CCC[C@@H](CN(C)C)C1)C(=O)N1CCC[C@H](N1)C(=O)OCC(C)(C)C2` and give its measured pIC50. 6.00 to 7.00

Consider the compound C=CC(=O)N1CCC[C@@H]2CN(C(=O)N(C)[C@H](C(=O)N[C@H]3Cc4nc(cs4)-c4ccc5c(c4)c(c(-c4cccnc4[C@H](C)OC)n5CC)CC(C)(C)COC(=O)C4CCCN(N4)C3=O)C(C)C)C[C@@H]21 (some centres unmarked) and give its measured pIC50. 6.00 to 7.00

Consider the compound CCn1c(-c2cccnc2[C@H](C)OC)c2c3cc(ccc31)-c1csc(n1)C[C@H](NC(=O)[C@H](C(C)C)N(C)C(=O)N1CC(NC)C1)C(=O)N1CCC[C@H](N1)C(=O)OCC(C)(C)C2 (atropisomer, axis not shown) and give its measured pIC50. 6.00 to 7.00

---

Target: KRAS Q61H (Homo sapiens, UniProt P01116+P62937, Q61H)
Sequence (P01116 1-169 isoform P01116-2 Q61H limits assumed): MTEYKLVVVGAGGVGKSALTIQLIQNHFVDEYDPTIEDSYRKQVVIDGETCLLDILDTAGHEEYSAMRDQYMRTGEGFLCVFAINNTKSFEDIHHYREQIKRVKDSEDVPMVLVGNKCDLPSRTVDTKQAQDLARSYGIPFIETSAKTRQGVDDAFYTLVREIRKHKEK
Sequence (P62937 whole entry): as the sequence (P62937 whole entry) above
Assay: Ras-Raf disruption / FRET / MOA assay (BRAF RBD)
Format: biochemical
property: IC50

Guide cases for IC50, answers given:
INSERT INTO measurements (compound, valuemeasured) VALUES
  ('CCn1c(-c2cccnc2[C@H](C)OC)c2c3cc(ccc31)-c1cc(O)cc(c1)C[C@H](NC(=O)[C@H](C1CCCC1)N(C)C(=O)CN(C)C(=O)[C@@H]1N[C@@H]1C1(OC)CC1)C(=O)N1CCC[C@H](N1)C(=O)OCC(C)(C)C2 (single isomer, unassigned) [Example 323]', '10 to 100 nM'),
  ('CCn1c(-c2cc(N3CCN(C)CC3)cnc2[C@H](C)OC)c2c3cc(ccc31)-c1cc(O)cc(c1)C[C@H](NC(=O)[C@H](C1CCCC1)N(C)C(=O)CN(C)C(=O)[C@@H]1N[C@@H]1C1CC1)C(=O)N1CCC[C@H](N1)C(=O)OCC(C)(C)C2 [Example 325]', '< 10 nM'),
  ('CCn1c(-c2cccnc2[C@H](C)OC)c2c3cc(ccc31)-c1cc(O)cc(c1)C[C@H](NC(=O)[C@H](C(C)C)N(C)C(=O)CN(C)C(=O)[C@@H]1N[C@@H]1C(C)C)C(=O)N1CCC[C@H](N1)C(=O)OCC(C)(C)C2 [Example 264]', '< 10 nM'),
  ('CC[C@H]1N[C@H]1C(=O)N(C)CC(=O)N(C)[C@H](C(=O)N[C@H]1Cc2cc(O)cc(c2)-c2ccc3c(c2)c(c(-c2cccnc2[C@H](C)OC)n3CC)CC(C)(C)COC(=O)[C@@H]2CCCN(N2)C1=O)C(C)C [Example 262]', '10 to 100 nM'),
  ('CCn1c(-c2cccnc2[C@H](C)OC)c2c3cc(ccc31)-c1cc(O)cc(c1)C[C@H](NC(=O)[C@H](C(C)C)N(C)C(=O)CN(C)C(=O)[C@H]1CN1CC1(C)COC1)C(=O)N1CCC[C@H](N1)C(=O)OCC(C)(C)C2 (some centres unmarked) [Example 279]', '10 to 100 nM'),
  ('CCn1c(-c2cccnc2[C@H](C)OC)c2c3cc(ccc31)-c1cc(O)cc(c1)C[C@H](NC(=O)[C@H](C(C)C)N(C)C(=O)CN(C)C(=O)[C@]1(C)CN1)C(=O)N1CCC[C@H](N1)C(=O)OCC(C)(C)C2 [Example 257]', '10 to 100 nM'),
  ('CCN1C[C@@H]1C(=O)N(C)CC(=O)N(C)[C@H](C(=O)N[C@H]1Cc2cc(O)cc(c2)-c2ccc3c(c2)c(c(-c2cccnc2[C@H](C)OC)n3CC)CC(C)(C)COC(=O)[C@@H]2CCCN(N2)C1=O)C1CCCC1 (some centres unmarked) [Example 309]', '10 to 100 nM');

Please look at the following compound next.
Consider the compound CCn1c(-c2cccnc2[C@H](C)OC)c2c3cc(ccc31)-c1cc(O)cc(c1)C[C@H](NC(=O)[C@H](C(C)C)N(C)C(=O)CN(C)C(=O)[C@H]1CN1C1COC1)C(=O)N1CCC[C@H](N1)C(=O)OCC(C)(C)C2 (some centres unmarked) [Example 275] and give its measured IC50. 10 to 100 nM
